Tested on: influenza strain A/VN/1203/2004 (H5N1)
Experiment: microbe, parasite or virus in culture
Assay type: cell-based, Influenza A virus (H5N1)
Conditions: read-out: H5N1 EC50 (Inf Pt)
pEC50: −log10 of the molar value.
label 1 means recorded pEC50 is 6 or above; label 0 means it is below 6.

Past entries and their recorded results:
COc1ccc(C2NC(=O)NC3=C2CN(C(=O)COC(C)=O)c2ccccc23)cc1Br (stereo not shown)
label 1
O=C1NC2=C(COc3ccccc32)C(c2ccc(O)c(Br)c2)N1 (stereo not shown)
label 1
Cn1c2c(c(-c3ccc4c(c3)OCO4)nc1=O)CCc1ccccc1-2
label 0

# input Does pEC50 meet or surpass 6 for COc1nc(-c2ccc3c(c2)OCO3)c2c(n1)-c1ccccc1CC2 ?
# output label 0

# input Check if pEC50 >= 6 (inclusive). Item: Cc1ccc(C2NC(=O)NC3=C2COc2ccccc23)cc1C (stereo not shown)
# output label 0
